assay: NCI Yeast Anticancer Drug Screen. Data for the rad52 strain (AID 147); settings: S. cerevisiae rad52 mutant growth inhibition; at 11.0 µM; active compounds read high
This is part of a sample that, as a whole, favours compounds with a hit. Of some 79,000 tested, about 15% had one in any assay.
Answer False if growth inhibition is under 40%, and True if it is 40% or more.

Incoming: Check this compound for growth inhibition at or above 40%: CCOC(=O)/C(=C\c1ccc(C#N)cc1)C(C)=O
Outgoing: False

Incoming: Check this compound for growth inhibition at or above 40%: CN(C)c1nc(=Nc2cccc(Cl)c2)ss1
Outgoing: True

Incoming: Check this compound for growth inhibition at or above 40%: CCOC(=O)c1[nH]n(-c2ccccc2)c(=O)c1C=NC(=S)C(N)=S
Outgoing: False

Incoming: Check this compound for growth inhibition at or above 40%: O/N=C\c1c(O)ccc2ccccc12
Outgoing: False

Incoming: Check this compound for growth inhibition at or above 40%: COc1ccc(NC(=O)CC2SC(=Nc3ccccc3C)NC2=O)c([N+](=O)[O-])c1 (stereo not given)
Outgoing: False

Incoming: Check this compound for growth inhibition at or above 40%: Cc1csc(=S)n1OC(=O)NC1CCCCC1
Outgoing: True

Incoming: Check this compound for growth inhibition at or above 40%: N=C1N=Nc2nc(C3(c4nc5n(c4O)C(=N)N=N5)Cc4ccccc4C3=O)c(O)n21 (stereo not given)
Outgoing: False

Incoming: Check this compound for growth inhibition at or above 40%: O=C(NO)Nc1cc(Cl)cc(Cl)c1
Outgoing: True

Incoming: Check this compound for growth inhibition at or above 40%: CCN(CC)CCN(C)CCc1ccc(Br)cc1
Outgoing: False

Incoming: Check this compound for growth inhibition at or above 40%: CC(=O)SC(C[N+](=O)[O-])c1ccccc1 (stereo not given)
Outgoing: True

Incoming: Check this compound for growth inhibition at or above 40%: Nc1n[n+]([O-])c2ccc(Cl)cc2[n+]1[O-]
Outgoing: True

Incoming: Check this compound for growth inhibition at or above 40%: COC(C(O)CO)C(O)C(O)C(=O)NNc1ccccc1 (stereo not given)
Outgoing: True

Incoming: Check this compound for growth inhibition at or above 40%: Cc1cc(-c2cc(C)c(O)c(C(C)(C)C)c2)cc(C(C)(C)C)c1O
Outgoing: False

Incoming: Check this compound for growth inhibition at or above 40%: O=[N+]([O-])/C=C/c1cc(Cl)c(/C=C/[N+](=O)[O-])cc1Cl
Outgoing: True

Incoming: Check this compound for growth inhibition at or above 40%: CC(C)/C(Cl)=N\OC(=O)Nc1ccc(F)cc1F
Outgoing: False

Incoming: Check this compound for growth inhibition at or above 40%: CCOc1ccccc1N=Cc1c2ccccc2cc2ccccc12
Outgoing: True

Incoming: Check this compound for growth inhibition at or above 40%: O=C(O)c1cc2ccccc2c2c1C(=O)c1ccccc1-2
Outgoing: True

Incoming: Check this compound for growth inhibition at or above 40%: Cc1ccc(Cl)cc1NC(=O)OCCN(C)C(=O)Nc1cc(Cl)ccc1C
Outgoing: False

Incoming: Check this compound for growth inhibition at or above 40%: CC(=O)OCC1OC2OC(=O)NC2C(OC(C)=O)C1OC(C)=O (stereo not given)
Outgoing: False

Incoming: Check this compound for growth inhibition at or above 40%: c1ccc2cc(NCNc3ccc4ccccc4c3)ccc2c1
Outgoing: False

Incoming: Check this compound for growth inhibition at or above 40%: O=C1OC(OC/C(Br)=C(\Br)COC2OC(=O)C(Cl)=C2Cl)C(Cl)=C1Cl (stereo not given)
Outgoing: False

Incoming: Check this compound for growth inhibition at or above 40%: O=C1c2ccccc2C(=O)N1CCCC(=O)n1cc(F)c(=O)[nH]c1=O
Outgoing: False

Incoming: Check this compound for growth inhibition at or above 40%: COc1cc(O)c(O)c(C(C)(C)C)c1
Outgoing: False

Incoming: Check this compound for growth inhibition at or above 40%: CCC(C)OC(=O)Nc1ccc(C)c(NC(=O)OC(C)CC)c1 (stereo not given)
Outgoing: False
